These entries and their values trace back to patent US4415566A.

We begin with a simple list: items and their reported MIC.
Test system: Klebsiella pneumoniae ATCC 10 031
MEASUREMENT_NOTES: Serial dilution test in the microtiter system (MIC), Klebs. pneum. ATCC 10031
Format: cell-based
EXPERIMENTAL_SETUP: Table IV, Klebs. pneum. ATCC 10031, 37° C., 18-20 hours, read-out: MIC

[
  {
    "COMPOUND": "Cc1ncc(CNc2ncc(NC(=O)N[C@@H](C(=O)N[C@@H]3C(=O)N4C(C(=O)O)=C(CSc5nnnn5C)CS[C@H]34)c3ccc(O)cc3)c(O)n2)cn1 [P]",
    "MIC": "0.25 µg/mL"
  },
  {
    "COMPOUND": "Cn1nnnc1SCC1=C(C(=O)O)N2C(=O)[C@@H](NC(=O)[C@H](NC(=O)Nc3cnc(NCc4ccco4)nc3O)c3ccc(O)cc3)[C@H]2SC1 [J]",
    "MIC": "0.5 µg/mL"
  },
  {
    "COMPOUND": "Cn1nnnc1SCC1=C(C(=O)O)N2C(=O)[C@@H](NC(=O)[C@H](NC(=O)Nc3cnc(Nc4ccc([S+](C)[O-])nc4)nc3O)c3ccc(O)cc3)[C@H]2SC1 (stereo partly shown) [O]",
    "MIC": "0.25 µg/mL"
  },
  {
    "COMPOUND": "CC(=O)OCC1=C(C(=O)O)N2C(=O)[C@@H](NC(=O)[C@H](NC(=O)Nc3cnc(NCc4ccco4)nc3O)c3ccc(O)cc3)[C@H]2SC1 [K]",
    "MIC": "1 µg/mL"
  },
  {
    "COMPOUND": "Cn1nnnc1SCC1=C(C(=O)O)N2C(=O)[C@@H](NC(=O)[C@H](NC(=O)Nc3cnc(NCc4cccs4)nc3O)c3ccc(O)cc3)[C@H]2SC1 [N]",
    "MIC": "0.25 µg/mL"
  },
  {
    "COMPOUND": "CO/N=C(\\C(=O)N[C@@H]1C(=O)N2C(C(=O)O)=C(COC(N)=O)CS[C@H]12)c1ccco1 [Cefuroxim, reference compound]",
    "MIC": "2 µg/mL"
  },
  {
    "COMPOUND": "Cc1nnc(SCC2=C(C(=O)O)N3C(=O)[C@@H](NC(=O)Cn4cnnn4)[C@H]3SC2)s1 [Cephazolin, reference compound]",
    "MIC": "1 µg/mL"
  }
]

###

We begin with a simple list: items and their reported MIC.
System: Escherichia coli ATCC 11 775
MEASUREMENT_NOTES: Serial dilution test in the microtiter system (MIC), E. Coli ATCC 11775
Assay type: cell-based
ENDPOINT_LABEL: MIC (µg/mL)

[
  {
    "MOLECULE": "CC1(C)S[C@@H]2[C@H](NC(=O)[C@H](NC(=O)Nc3cnc(NCc4ccco4)nc3O)c3ccc(O)cc3)C(=O)N2[C@H]1C(=O)O [D]",
    "MEASURED_RESULT": 1
  },
  {
    "MOLECULE": "CC1(C)S[C@@H]2[C@H](NC(=O)[C@H](NC(=O)N3CCNC3=O)c3ccccc3)C(=O)N2[C@H]1C(=O)O [Azlocillin, reference compound]",
    "MEASURED_RESULT": 8
  },
  {
    "MOLECULE": "CC1(C)S[C@@H]2[C@H](NC(=O)[C@H](NC(=O)Nc3cnc(Nc4ccc(C(N)=O)s4)nc3O)c3ccc(O)cc3)C(=O)N2[C@H]1C(=O)O [B]",
    "MEASURED_RESULT": 0.25
  },
  {
    "MOLECULE": "Cc1nnc(SCC2=C(C(=O)O)N3C(=O)[C@@H](NC(=O)Cn4cnnn4)[C@H]3SC2)s1 [Cephazolin, reference compound]",
    "MEASURED_RESULT": 4
  }
]

###

Tested on: Pseudomonas aeruginosa Hamburgensis
MEASUREMENT_NOTES: Serial dilution test in the microtiter system (MIC), Pseud. aerug. Hbg.
Assay type: cell-based
EXPERIMENTAL_SETUP: Table III, Pseud. aerug. Hbg., 37° C., 18-20 hours, read-out: MIC

[
  {
    "COMPOUND": "CC1(C)S[C@@H]2[C@H](NC(=O)[C@H](NC(=O)Nc3cnc(Nc4ccc(S(C)(=O)=O)nc4)nc3O)c3ccc(O)cc3)C(=O)N2[C@H]1C(=O)O [Compound E]",
    "MIC, µg/mL": 1
  },
  {
    "COMPOUND": "CC1(C)S[C@@H]2[C@H](NC(=O)[C@H](NC(=O)Nc3cnc(NCc4ccco4)nc3O)c3ccc(O)cc3)C(=O)N2[C@H]1C(=O)O [D]",
    "MIC, µg/mL": 1
  },
  {
    "COMPOUND": "CC1(C)S[C@@H]2[C@H](NC(=O)[C@H](NC(=O)Nc3cnc(Nc4ccc(O)nc4)nc3O)c3ccc(O)cc3)C(=O)N2[C@H]1C(=O)O [G]",
    "MIC, µg/mL": 0.5
  },
  {
    "COMPOUND": "CC1(C)S[C@@H]2[C@H](NC(=O)[C@H](NC(=O)Nc3cnc(Nc4ccc(C(N)=O)s4)nc3O)c3ccc(O)cc3)C(=O)N2[C@H]1C(=O)O [B]",
    "MIC, µg/mL": 1
  }
]

###

Tested on: Proteus mirabilis Hamburgensis
MEASUREMENT_NOTES: Serial dilution test in the microtiter system (MIC), Prot. mirabilis
Type: cell-based
EXPERIMENTAL_SETUP: Table III, Prot. mirabilis, 37° C., 18-20 hours, read-out: MIC
We begin with a simple list: items and their reported MIC.
ENDPOINT_LABEL: MIC (µg/mL)

[
  {
    "COMPOUND": "CC1(C)S[C@@H]2[C@H](NC(=O)[C@H](NC(=O)Nc3cnc(Nc4ccc(C(N)=O)s4)nc3O)c3ccc(O)cc3)C(=O)N2[C@H]1C(=O)O [B]",
    "MEASURED_RESULT": 0.06
  },
  {
    "COMPOUND": "Cc1ncc(CNc2ncc(NC(=O)N[C@@H](C(=O)N[C@@H]3C(=O)N4[C@@H]3SC(C)(C)[C@@H]4C(=O)O)c3ccc(O)cc3)c(O)n2)cn1 [F]",
    "MEASURED_RESULT": 0.06
  },
  {
    "COMPOUND": "CC1(C)S[C@@H]2[C@H](NC(=O)[C@H](NC(=O)Nc3cnc(Nc4ccc(O)nc4)nc3O)c3ccc(O)cc3)C(=O)N2[C@H]1C(=O)O [G]",
    "MEASURED_RESULT": 0.01
  },
  {
    "COMPOUND": "CC1(C)S[C@@H]2[C@H](NC(=O)[C@H](NC(=O)Nc3cnc(NCc4cccnc4)nc3O)c3ccc(O)cc3)C(=O)N2[C@H]1C(=O)O [A]",
    "MEASURED_RESULT": 0.12
  },
  {
    "COMPOUND": "CC1(C)S[C@@H]2[C@H](NC(=O)[C@H](NC(=O)Nc3cnc(Nc4ccc(S(C)(=O)=O)nc4)nc3O)c3ccc(O)cc3)C(=O)N2[C@H]1C(=O)O [Compound E]",
    "MEASURED_RESULT": 0.06
  }
]

###

We begin with a simple list: items and their reported MIC.
Tested on: Proteus mirabilis Hamburgensis
MEASUREMENT_NOTES: Serial dilution test in the microtiter system (MIC), Prot. mirabilis
Format: cell-based

[
  {
    "MOLECULE": "Cc1nnc(SCC2=C(C(=O)O)N3C(=O)[C@@H](NC(=O)Cn4cnnn4)[C@H]3SC2)s1 [Cephazolin, reference compound]",
    "TESTED_SYSTEM": "Proteus mirabilis Hamburgensis",
    "MIC / µg/mL": 4
  },
  {
    "MOLECULE": "CC1(C)S[C@@H]2[C@H](NC(=O)[C@H](NC(=O)Nc3cnc(NCc4ccco4)nc3O)c3ccc(O)cc3)C(=O)N2[C@H]1C(=O)O [D]",
    "TESTED_SYSTEM": "Proteus mirabilis Hamburgensis",
    "MIC / µg/mL": 0.25
  },
  {
    "MOLECULE": "CC1(C)S[C@@H]2[C@H](NC(=O)[C@H](NC(=O)Nc3cnc(NCc4cccs4)nc3O)c3ccc(O)cc3)C(=O)N2[C@H]1C(=O)O [C]",
    "TESTED_SYSTEM": "Proteus mirabilis Hamburgensis",
    "MIC / µg/mL": 0.25
  },
  {
    "MOLECULE": "CC1(C)S[C@@H]2[C@H](NC(=O)[C@H](NC(=O)N3CCNC3=O)c3ccccc3)C(=O)N2[C@H]1C(=O)O [Azlocillin, reference compound]",
    "TESTED_SYSTEM": "Proteus mirabilis Hamburgensis",
    "MIC / µg/mL": 2
  }
]

###

Test system: Proteus rettgeri
MEASUREMENT_NOTES: Serial dilution test in the microtiter system (MIC), Prot. rettgeri
Type: cell-based
EXPERIMENTAL_SETUP: Providencia rettgeri; Table IV; Prot. rettg.; 37° C., 18-20 hours; read-out: MIC
We begin with a simple list: items and their reported MIC.
ENDPOINT_LABEL: MIC (µg/mL)

[
  {
    "COMPOUND": "Cn1nnnc1SCC1=C(C(=O)O)N2C(=O)[C@@H](NC(=O)[C@H](NC(=O)Nc3cnc(Nc4ccc([S+](C)[O-])nc4)nc3O)c3ccc(O)cc3)[C@H]2SC1 (some centres unmarked)",
    "MEASURED_RESULT": 0.5
  },
  {
    "COMPOUND": "Cn1nnnc1SCC1=C(C(=O)O)N2C(=O)[C@@H](NC(=O)C(NC(=O)Nc3cnc(NCc4ccco4)nc3O)c3cccs3)[C@H]2SC1 (single isomer, unassigned)",
    "MEASURED_RESULT": 0.5
  },
  {
    "COMPOUND": "CC(=O)OCC1=C(C(=O)O)N2C(=O)[C@@H](NC(=O)[C@H](NC(=O)Nc3cnc(NCc4ccco4)nc3O)c3ccc(O)cc3)[C@H]2SC1",
    "MEASURED_RESULT": 1
  },
  {
    "COMPOUND": "CO/N=C(\\C(=O)N[C@@H]1C(=O)N2C(C(=O)O)=C(COC(N)=O)CS[C@H]12)c1ccco1 [Cefuroxim, reference compound]",
    "MEASURED_RESULT": 2
  },
  {
    "COMPOUND": "Cn1nnnc1SCC1=C(C(=O)O)N2C(=O)[C@@H](NC(=O)[C@H](NC(=O)Nc3cnc(NCc4cccnc4)nc3O)c3ccc(O)cc3)[C@H]2SC1",
    "MEASURED_RESULT": 0.5
  }
]
